Reported direct ELISA positive/negative values follow for various binders
Molecular target: T1, recombinant protein consisting of the extracellular domain of human TREM2 fused to the His tag (human, UniProt Q9NZC2 19-174)
T1 construct: also called His tagged hTREM2; His-TREM2
T1 sequence: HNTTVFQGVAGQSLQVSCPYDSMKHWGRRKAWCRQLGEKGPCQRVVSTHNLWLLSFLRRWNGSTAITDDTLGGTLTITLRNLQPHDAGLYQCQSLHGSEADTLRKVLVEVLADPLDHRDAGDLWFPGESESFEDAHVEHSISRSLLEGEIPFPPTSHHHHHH
Experiment: direct ELISA
API: value field is a number in ratio; no unit string.

binder	direct ELISA positive/negative / ratio
60H4G2 (antibody, V domains shown, Biotin conjugated in sup ELISA, cell-based ELISA and flow cytometry) VH: EVQLQESGPELVKPGASVKMSCKASGYTFTDYNMHWVKQSHGKSLEWIGYIYPNNGGTGYNQKFKGKATLTVNKSSSTAYMELRSLTSEDSAVYYCARSGRGFAYWGQGTLVTVSA VL: DIVMTQSTSSLTVTAGEKVTMSCKSSQSLLNSGNQKNYLTWYQQKPGQPPKLLIYWASSRESGVPDRFTGRGSGTDFTLTISSVQAEDLAVYYCQNDYSYPFTFGSGTKLEIK	27.4
54H2C1 (antibody, V domains shown, Biotin conjugated in sup ELISA, cell-based ELISA and flow cytometry) VH: QVQLQQPGAEPLTPGASVKMSCEASGYTFTNFWITWVKLRPGQGLEWIGDIYPGSGNTNYNEKFKSRATLTVDTSSTTAYMQLSSLTSEDSAVYYCAREAYYTNPGFAYWGHGTLVTVSA VL: DVLMTQSPLSLPVNLGDQASISCKSSQNIVHSNGNTYLEWYLQRPGQSPKLLIYKVSNRFSGVPDRFSGSGSGTDFTLKISRVEAEDLGLYYCFQGSHVPYTFGGGTKLEIK	33.9

API: the following record is the query input.
Name the recorded direct ELISA positive/negative for 61B11C9 (antibody, V domains shown, Biotin conjugated in sup ELISA, cell-based ELISA and flow cytometry) VH: QLQESGPEQVKPGASVKMSCRTSGYTFTAYNMHWVKQRLGKSLEWIGYIRPTNGDTRYNRRFRDKATLTVDKSSSTTYMELRSLTSEDSAVYYCTRSTTVASFDYWGQGTTLTVSS VL: DIVMTQTTSSLTVSVGQKITLNCKSSQSLLYTNNQKNFLAWYQQKPGQSPKLLIYWASTRDSGVPDRFTGSGSGTDFTLTITSVMAEDLAVYFCQQYYDFPPTFGGGTKLEIK . 35.1
